Source of measurements: patent US20200308290A1

Target: T1, cynomolgous monkey CD25 (cynomolgous monkey)
T1 construct: also called cmCD25; cm
Test: SPR (BIAcore), cynomolgous CD25
pKd: −log10 of the molar value.
measure name: pKd

Variant C40 (antibody, name in Kabat numbering, V domains shown, Isotype as printed: G2M3.QL) VH: QVQLVQSGAEVKKPGSSVKVSCKASGYTFTSYRMHWVRQAPGQGLEWMGYISPRKGYTEYNQKFKDKATITADESTNTAYMELSSLRSEDTAVYYCARGGGVFDYWGQGTLVTVSS VL: DIQMTQSPSTLSASVGDRVTITCSASSSISYMHWYQQKPGKAPKLLIYTTSELASGVPARFSGSGSGTEFTLTISSLQPDDFATYYCHQRSTYPLTFGQGTKVEVK :: 10.13
Variant C34 (antibody, V domains shown, Isotype as printed: G2M3.QL) VH: QVQLVQSGAEVKKPGSSVKVSCKASGYTFTSYRMHWVRQAPGQGLEWMGYIKPSRGYTEYNQKFKDKATITADESTNTAYMELSSLRSEDTAVYYCARGGGVFDYWGQGTLVTVSS VL: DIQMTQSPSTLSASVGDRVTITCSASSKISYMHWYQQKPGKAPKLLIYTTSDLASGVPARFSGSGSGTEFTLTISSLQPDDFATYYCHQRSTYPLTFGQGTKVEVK :: 10.06
Variant C27 (antibody, name in Kabat numbering, V domains shown, Isotype as printed: G2M3.QL) VH: QVQLVQSGAEVKKPGSSVKVSCKASGYTFTSYRMHWVRQAPGQGLEWMGYINPSSGYTEYNQKFKDKATITADESTNTAYMELSSLRSEDTAVYYCARGGGVFDYWGQGTLVTVSS VL: DIQMTQSPSTLSASVGDRVTITCSASSSISYMHWYQQKPGKAPKLLIYTTSNLASGVPARFSGSGSGTEFTLTISSLQPDDFATYYCHQRSTYPLTFGQGTKVEVK :: 9.58
Variant C29 (antibody, name in Kabat numbering, V domains shown, Isotype as printed: G2M3.QL) VH: QVQLVQSGAEVKKPGSSVKVSCKASGYTFTSYRMHWVRQAPGQGLEWMGYINPSSGYTEYNQKFKDKATITADESTNTAYMELSSLRSEDTAVYYCARGGGVFDYWGQGTLVTVSS VL: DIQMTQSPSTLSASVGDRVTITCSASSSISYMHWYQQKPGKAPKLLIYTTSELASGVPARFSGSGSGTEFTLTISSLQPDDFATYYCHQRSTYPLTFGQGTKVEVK :: 10.01
